molecular target: hB2 receptor (Homo sapiens, UniProt P30411); assay: In vitro Assay of hB2 Receptor Function using Calcium Flux; details: recombinant CHO cells, antagonist IC50 against agonist at EC80
Sequence (P30411 whole entry): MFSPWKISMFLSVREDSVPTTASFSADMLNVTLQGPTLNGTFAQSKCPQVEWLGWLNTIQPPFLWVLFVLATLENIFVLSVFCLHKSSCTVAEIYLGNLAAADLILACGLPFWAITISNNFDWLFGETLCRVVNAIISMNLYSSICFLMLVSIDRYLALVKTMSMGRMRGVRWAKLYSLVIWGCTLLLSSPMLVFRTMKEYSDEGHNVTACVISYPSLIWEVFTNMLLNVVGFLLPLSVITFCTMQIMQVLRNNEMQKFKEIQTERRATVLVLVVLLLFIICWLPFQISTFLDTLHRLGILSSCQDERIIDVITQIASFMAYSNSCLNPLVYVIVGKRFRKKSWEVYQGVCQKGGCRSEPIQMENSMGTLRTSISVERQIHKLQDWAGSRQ
property: IC50 (nM)

Guide cases for IC50, answers given:
CC(=O)N1CCC(NC(=O)C[C@@H]2C(=O)NC=CN2S(=O)(=O)c2ccc(C)cc2)C(C)(C)C1 (stereo partly shown): 15
Cc1ccc(S(=O)(=O)N2C=CNC(=O)[C@H]2CC(=O)NC2CCC(NCC(C)(C)C)CC2(C)C)cc1 (mixture of isomers): 2300
Cc1ccc(S(=O)(=O)N2C=CNC(=O)[C@H]2CC(=O)NC2CCN(CCc3ccccc3)CC2)cc1: 20
Cc1ccc(S(=O)(=O)N2C=CNC(=O)[C@H]2CC(=O)NC2CCC(N3CCC(F)CC3)CC2(C)C)cc1 (mixture of isomers): 1980
Cc1ccc(S(=O)(=O)N2C=CNC(=O)[C@H]2CC(=O)NC2CC3CCC(C2)N3C)cc1 (stereo partly shown): 140

I: Cc1ccc(S(=O)(=O)N2C=CNC(=O)[C@H]2CC(=O)NC2CC(=O)OC(C)(C)C2)cc1 (mixture of isomers)
II: Cc1cc(S(=O)(=O)N2C=CNC(=O)[C@H]2CC(=O)N2CCC(CO)CC2)c(C)cc1Cl
Q) Lower value of IC50 belongs to which: I or II ? Indicate which entry you chose by stating its label.
A) II

====

target: hB2 receptor (Homo sapiens, UniProt P30411); assay: In vitro Assay of hB2 Receptor Function using Calcium Flux; settings: recombinant CHO cells, antagonist IC50 against agonist at EC80
pIC50: −log10 of the molar value. Counter-ions that a name gives are not always drawn.
property: pIC50

Cc1cc(S(=O)(=O)N2C=CNC(=O)[C@H]2CC(=O)N2CCCC(N(C)C3CC3)CC2)c(C)cc1Cl (mixture of isomers) [T-3-28, trifluoroacetic acid salt]: 7.49

P: Cc1cc(S(=O)(=O)N2C=CNC(=O)[C@H]2CC(=O)N2CCC(CN3CCCC3)CC2)c(C)cc1Cl
Q: Cc1ccc(S(=O)(=O)N2C=CNC(=O)[C@H]2CC(=O)N[C@H]2CC[C@@H](N)CC2)cc1
R: Cc1ccc(S(=O)(=O)N2C=CNC(=O)[C@H]2CC(=O)N2CCCC2c2ccccc2)cc1 (some centres unmarked)
S: Cc1cc(S(=O)(=O)N2C=CNC(=O)[C@H]2CC(=O)N2CCC3(CCNC3)C2)c(C)cc1Cl (some centres unmarked)
T: Cc1ccc(S(=O)(=O)N2C=CNC(=O)[C@H]2CC(=O)N2C[C@@H](N)[C@H](c3ccccc3)C2)cc1
Q) Place the items in sequence of falling pIC50. In plain terms: list the labels in the order you were asked to.
A) S, Q, P, T, R

A: Cc1cc(S(=O)(=O)N2C=CNC(=O)[C@H]2CC(=O)N2CCC(N3CCCC3)C(C)(C)C2)c(C)cc1Cl (mixture of isomers)
B: Cc1ccc(S(=O)(=O)N2C=CNC(=O)[C@H]2CC(=O)NC2CCCCC2C2CCCCC2)cc1 (some centres unmarked)
Q) Recorded pIC50 values differ for A and B ; which one is higher? Indicate which entry you chose by stating its label.
A) A

P: Cc1ccc(S(=O)(=O)N2C=CNC(=O)[C@H]2CC(=O)N(C)C2CCN(C)CC2)cc1
Q: COc1ccc(CC2CCCN2C(=O)C[C@@H]2C(=O)NC=CN2S(=O)(=O)c2ccc(C)cc2)cc1 (some centres unmarked)
Q) Lower value of pIC50 belongs to which: P or Q ? Indicate which entry you chose by stating its label.
A) Q
(Q: 6.41, P: 8.52)
